B1: SPDEF (parent)
chain: YPEDSSWAAKAPGASSREEPPEEP

variants of: B1; assay: protein stability index of a GFP-peptide fusion (GPS, HEK-293T) (PSI 1-6); higher = more stable; conditions: c terminus: a fixed tail appended;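 further: lentivirally expressed fusions sorted by FACS into six bins by GFP to DsRed ratio, PSI derived from sequencing read proportions per bin multiplied by bin number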
metric.name: protein stability index
Lab note: jot the number down without any unit.

Can you share its protein stability index? I mean this variant: YPEDSSWAAKAPAASSREEPPEEP [G13A]
3.64

Now give it for YPEDSSWAAKAPGASSREEPPVEP [E22V] too.
4.23

Now give it for YPEDSSWAAKAPGASSREEPPEEC [P24C] too.
4.4

Now give it for YPEDSSWAAKAPGASSREEPPEED [P24D] too.
4.17

Now give it for YPEDSSWAAKAPGAMSREEPPEEP [S15M] too.
3.77

Now give it for YPEDSSWAAKAPGASSFEEPPEEP [R17F] too.
4.27

Now give it for YPEDSSWAAKAPGASSRWEPPEEP [E18W] too.
3.3

Now give it for YPEDSSWAAKAPGASSPEEPPEEP [R17P] too.
3.85

Now give it for YPEDSSWAAKDPGASSREEPPEEP [A11D] too.
4.51

Now give it for YPEDSSWAAKKPGASSREEPPEEP [A11K] too.
3.9

Now give it for YPEDSSWAAKAPGAYSREEPPEEP [S15Y] too.
3.1

Now give it for HPEDSSWAAKAPGASSREEPPEEP [Y1H] too.
5.7

Now give it for YPEDSSWAHKAPGASSREEPPEEP [A9H] too.
3.4

Now give it for YPEDSSWAAKAPGASLREEPPEEP [S16L] too.
4.36

Now give it for YPVDSSWAAKAPGASSREEPPEEP [E3V] too.
4.09

Now give it for YPEDSSWAAKAPGASSRETPPEEP [E19T] too.
4.49

Now give it for YPEDSSWAAKAPGADSREEPPEEP [S15D] too.
4.61

Now give it for YPEDSSWAAKAPGASSREEEPEEP [P20E] too.
4.2

Now give it for YPEDSSWAAQAPGASSREEPPEEP [K10Q] too.
3.11

Now give it for YPEDSSWYAKAPGASSREEPPEEP [A8Y] too.
3.17

Now give it for YPEDSTWAAKAPGASSREEPPEEP [S6T] too.
4.57

Now give it for YPEDSSWAAKAPGASAREEPPEEP [S16A] too.
3.72
